# Maximum Fold Increase of CD86 on dendritic cells annotations
Target: human CD40 on cells (human, UniProt P25942 21-277)
Sequence (P25942 21-277): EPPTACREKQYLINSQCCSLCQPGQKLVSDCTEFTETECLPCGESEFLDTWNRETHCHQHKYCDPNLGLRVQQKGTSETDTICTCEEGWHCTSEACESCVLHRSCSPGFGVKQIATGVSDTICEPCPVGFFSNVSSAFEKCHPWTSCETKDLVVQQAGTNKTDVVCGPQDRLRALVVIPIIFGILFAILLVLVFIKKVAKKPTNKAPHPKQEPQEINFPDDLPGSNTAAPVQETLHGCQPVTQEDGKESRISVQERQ
Assay: cell-based or functional assay
OBSERVATION TYPE: Maximum Fold Increase of CD86 on dendritic cells (fold)

- BINDER: "Antibody B44 (antibody, V domains shown, Parent agonistic anti-CD40 antibody from the n-CoDeR library; Run alongside the IgG clones as 'B44 antibody' and detected with anti-human Ig on RAMOS cells; also called B44 antibody; original anti-CD40 antibody) VH: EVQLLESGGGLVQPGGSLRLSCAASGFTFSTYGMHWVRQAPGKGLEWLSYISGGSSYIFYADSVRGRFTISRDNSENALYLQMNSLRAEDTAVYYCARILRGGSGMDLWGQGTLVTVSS VL: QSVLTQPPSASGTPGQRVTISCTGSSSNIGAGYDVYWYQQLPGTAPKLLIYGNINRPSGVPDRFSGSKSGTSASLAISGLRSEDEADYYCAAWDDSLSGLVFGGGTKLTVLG"
  ENDPOINT VALUE: 132
- BINDER: "Antibody clone H11 (antibody, human IgG1, lambda, V domains shown, also called H11 ANTI-CD40 ANTIBODY) VH: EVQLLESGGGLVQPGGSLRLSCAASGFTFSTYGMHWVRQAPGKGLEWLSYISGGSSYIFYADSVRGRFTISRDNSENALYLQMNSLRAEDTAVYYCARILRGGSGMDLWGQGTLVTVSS VL: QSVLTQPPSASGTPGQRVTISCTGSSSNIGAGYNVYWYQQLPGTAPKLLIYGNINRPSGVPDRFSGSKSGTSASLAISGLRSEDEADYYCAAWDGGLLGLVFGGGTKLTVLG"
  ENDPOINT VALUE: 195
- BINDER: "Antibody clone C4 (antibody, human IgG1, lambda, V domains shown, Same VL changes as A4; VH carries S63T; also called C4 ANTI-CD40 ANTIBODY) VH: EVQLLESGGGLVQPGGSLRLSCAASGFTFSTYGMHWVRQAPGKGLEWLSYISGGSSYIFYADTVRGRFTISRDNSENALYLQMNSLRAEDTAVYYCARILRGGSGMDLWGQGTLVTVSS VL: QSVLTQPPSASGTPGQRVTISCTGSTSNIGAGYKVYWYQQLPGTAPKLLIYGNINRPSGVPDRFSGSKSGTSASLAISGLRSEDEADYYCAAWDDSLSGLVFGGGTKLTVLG"
  ENDPOINT VALUE: 164
